- System: HT-29 cells
- assay: CellTiter-Glo luminescent cell viability assay with HT-29 cells (72h incubation)
- Format: cell-based, human
- condition_summary: Homo sapiens, HT-29, HT29 cells, read-out: CTG HT29
result_type: IC50

Worked examples follow.
{"molecule": "Cc1ccc2cc1CNC(=O)[C@H](CCc1ccccc1)NC(=O)[C@@H](NC(=O)OCc1ccccc1)CCCC(=O)N1CCCC(CCO2)C1 (stereo partly shown)", "IC50": "< 100 nM"}
{"molecule": "Cc1ccc2cc1CNC(=O)C(CCc1ccc(S(=O)(=O)O)cc1)NC(=O)[C@@H](NC(=O)OCc1ccccc1)CC(=O)N1CCCC(CCO2)C1 (stereo partly shown)", "IC50": "100 to 500 nM"}
{"molecule": "Cc1ccc2cc1CNC(=O)[C@H](CCc1ccccc1)NC(=O)[C@@H](NC(=O)C1CCc3cc(N)ccc31)CC(=O)N1CCCC(CCO2)C1 (stereo partly shown)", "IC50": "< 100 nM"}

Incoming: Give its IC50 value. Item: Cc1ccc2cc1CNC(=O)[C@H](CCc1ccccc1)NC(=O)[C@H](NC(=O)OCc1ccccc1)CC(=O)N1CCC[C@H](CCO2)C1
Outgoing: < 100 nM

Incoming: Any idea what IC50 was measured for C=CC(=O)N[C@H]1CC(=O)N2CCCC(CCOc3ccc(C)c(c3)CNC(=O)[C@H](CCc3ccccc3)NC1=O)C2 (stereo partly shown) ?
Outgoing: < 100 nM

Incoming: Any idea what IC50 was measured for Cc1ccc2cc1CNC(=O)[C@H](CCc1ccccc1)NC(=O)[C@@H](NC(=O)C(C)(C)C#N)CC(=O)N1CCCC(CCO2)C1 (stereo partly shown) ?
Outgoing: < 100 nM

Incoming: Any idea what IC50 was measured for Cc1ccc2cc1CNC(=O)[C@H](CCc1ccccc1)NC(=O)[C@@H](N1C(=O)CCC1=O)CC(=O)N1CCCC(CCO2)C1 (stereo partly shown) ?
Outgoing: < 100 nM

Incoming: Entry Cc1ccc2cc1CNC(=O)[C@H](CCc1ccccc1)NC(=O)[C@@H](NC(=O)[C@H](C)c1ccccc1)CC(=O)N1CCCC(CCO2)C1 (stereo partly shown) has what IC50?
Outgoing: < 100 nM

Incoming: I'd like to know its IC50. The molecule in question is Cc1ccc2cc1CNC(=O)[C@H](CCc1ccccc1)NC(=O)[C@@H](NC(=O)Cc1ccccn1)CC(=O)N1CCCC(CCO2)C1 (stereo partly shown)
Outgoing: < 100 nM

Incoming: // lookup IC50 for CC(=O)N[C@H]1CC(=O)N2CCCC(CCOc3ccc(C)c(c3)CNC(=O)C(CCc3ccncc3)NC1=O)C2 (stereo partly shown)
Outgoing: < 100 nM

Incoming: Please report the recorded IC50 for CCOC(C(=O)N[C@H]1CC(=O)N2CCCC(CCOc3ccc(C)c(c3)CNC(=O)[C@H](CCc3ccccc3)NC1=O)C2)c1ccc(NC(C)=O)cc1 (stereo partly shown) .
Outgoing: < 100 nM

Incoming: May I ask what IC50 has been recorded for Cc1cc(C)c2cc1CNC(=O)[C@H](CCc1ccccc1)NC(=O)CCC(=O)N1CCCC(CCO2)C1 (stereo partly shown) ?
Outgoing: 1000 to 5000 nM

Incoming: I'd like to know its IC50. The molecule in question is COc1ccc2cc1CNC(=O)[C@H](CCc1ccccc1)NC(=O)[C@@H](NC(C)=O)CC(=O)N1CCCC(CCO2)C1 (stereo partly shown)
Outgoing: 100 to 500 nM

Incoming: Value lookup for IC50; key = Cc1ccc2cc1CNC(=O)[C@H](CCc1ccccc1)NC(=O)[C@@H](NC(=O)C(C)c1ccc3ncccc3c1)CC(=O)N1CCCC(CCO2)C1 (stereo partly shown)
Outgoing: < 100 nM

----------
Overview of recorded IC50 for various compounds
- measured_on: β5 subunit of the human constitutive proteasome (CPS) (Homo sapiens)
- assay: β5 inhibition assay, human constitutive proteasome (Suc-LLVY-AMC)
- condition_summary: IC50 class, Suc-LLVY-AMC substrate

{"compound": "Cc1ccc2cc1CNC(=O)[C@H](CCc1ccccc1)NC(=O)[C@@H](NC(=O)C(C)(C)c1ccc(N)cc1)CC(=O)N1CCCC(CCO2)C1 (stereo partly drawn)", "result_type": "IC50", "endpoint_result": "< 100 nM"}
{"compound": "Cc1ccc2cc1CNC(=O)[C@H](CCc1ccccc1)NC(=O)[C@@H](NC(=O)N1CCNCC1)CC(=O)N1CCCC(CCO2)C1 (stereo partly drawn)", "result_type": "IC50", "endpoint_result": "< 100 nM"}
{"compound": "CCOC(=O)N[C@H]1CC(=O)N2CCCC(CCOc3ccc(C)c(c3)CNC(=O)[C@H](CCc3ccccc3)NC1=O)C2 (stereo partly drawn)", "result_type": "IC50", "endpoint_result": "< 100 nM"}
{"compound": "Cc1ccc2cc1CNC(=O)[C@H](CCc1ccccc1)NC(=O)[C@@H](NC(=O)CCOCC1CCCC1)CC(=O)N1CCCC(CCO2)C1 (stereo partly drawn)", "result_type": "IC50", "endpoint_result": "< 100 nM"}
{"compound": "Cc1ccc2cc1CNC(=O)[C@H](CCc1ccccc1)NC(=O)[C@@H](N)CC(=O)N1CCCC(CCO2)C1 (stereo partly drawn)", "result_type": "IC50", "endpoint_result": "< 100 nM"}

// moving on: another record for IC50
Incoming: Report IC50 for Cc1ccc2cc1CNC(=O)[C@H](CCc1ccccc1)NC(=O)[C@@H](NC(=O)C(C)(C)CO)CC(=O)NCCCO2 please.
Outgoing: 1000 to 5000 nM

----------
- Tested on: HT-29 cells
- assay: CellTiter-Glo luminescent cell viability assay with HT-29 cells (72h incubation)
- Format: cell-based, human
- condition_summary: Homo sapiens, HT-29, HT29 cells, read-out: CTG HT29
result_type: IC50

{"compound": "Cc1ccc2cc1CNC(=O)[C@H](CCc1ccccc1)NC(=O)[C@@H](NC(=O)OCc1ccccc1)CC(=O)N1CCC(CCO2)C1 (stereo partly drawn)", "IC50": "< 100 nM"}
{"compound": "CC(=O)N[C@H]1CC(=O)N2CCCC(CCOc3ccc(C)c(c3)CNC(=O)[C@H](CCc3ccccc3)NC1=O)C2 (stereo partly drawn)", "IC50": "< 100 nM"}

Incoming: Returns the measured IC50 for the input compound. Input: CO[C@@H](C(=O)N[C@H]1CC(=O)N2CCCC(CCOc3ccc(C)c(c3)CNC(=O)C(c3cnn(C)c3)NC1=O)C2)c1ccccc1 (stereo partly drawn)
Outgoing: < 100 nM

Incoming: Give its IC50 value. Item: Cc1ccc2cc1CNC(=O)[C@H](CCc1ccccc1)NC(=O)[C@@H](NC(=O)C1CCCc3ccccc31)CC(=O)N1CCCC(CCO2)C1 (stereo partly drawn)
Outgoing: < 100 nM

Incoming: Need IC50, item CC(=O)N[C@H]1CC(=O)N2CCCC(CCOc3ccc(C)c(c3)CNC(=O)C(c3cnn(-c4ccccc4)c3)NC1=O)C2 (stereo partly drawn)
Outgoing: < 100 nM

Incoming: // IC50 lookup, key: Cc1ccc2cc1CNC(=O)[C@@H](CCc1ccccc1)NC(=O)[C@H](NC(=O)OCc1ccccc1)CC(=O)N1CCC[C@H](CCO2)C1
Outgoing: 100 to 500 nM

----------
- Tested on: HT-29 cells
- assay: CellTiter-Glo luminescent cell viability assay with HT-29 cells (72h incubation)
- Format: cell-based, human
- condition_summary: Homo sapiens, HT-29, HT29 cells, read-out: CTG HT29
pIC50: −log10 of the molar value.
result_type: pIC50

# example entries with known answers
{"molecule": "Cc1ccc2cc1CNC(=O)[C@H](CCc1ccccc1)NC(=O)[C@@H](NC(=O)C(C)(C)C)CC(=O)N1CCCC(CCO2)C1 (stereo partly shown)", "pIC50": "> 7.00"}
{"molecule": "Cc1ccc2cc1CNC(=O)[C@H](CCc1ccccc1)NC(=O)[C@@H](NC(=O)C1CCN1)CC(=O)N1CCCC(CCO2)C1 (stereo partly shown)", "pIC50": "> 7.00"}
{"molecule": "Cc1ccc2cc1CNC(=O)[C@H](CCc1ccccc1)NC(=O)[C@@H](NC(=O)Cc1ccccc1F)CC(=O)N1CCCC(CCO2)C1 (stereo partly shown)", "pIC50": "> 7.00"}
{"molecule": "Cc1ccc2cc1CNC(=O)[C@H](CCc1ccccc1)NC(=O)[C@@H](NC(=O)Cc1ccc(N)cc1)CC(=O)N1CCC[C@@H](CCO2)C1", "pIC50": "6.30 to 7.00"}
{"molecule": "CC(=O)N[C@H]1CCCC(=O)N2CCC2(C)COc2ccc(C)c(c2)CNC(=O)[C@H](CCc2ccccc2)NC1=O (stereo partly shown)", "pIC50": "6.30 to 7.00"}
{"molecule": "CC(=O)N[C@H]1CC(=O)N2CCCC(CCOc3ccc(C)c(c3)CNC(=O)C(Cn3c(=O)oc4ccccc43)NC1=O)C2 (stereo partly shown)", "pIC50": "> 7.00"}
{"molecule": "Cc1ccc2cc1CNC(=O)[C@H](CCc1ccccc1)NC(=O)[C@@H](NC(=O)OCc1ccccc1)CCC(=O)N1CCCC(CCO2)C1 (stereo partly shown)", "pIC50": "> 7.00"}
{"molecule": "Cc1ccc2cc1CNC(=O)[C@H](CCc1ccccc1)NC(=O)[C@@H](NC(=O)c1nc3ccccc3[nH]1)CC(=O)N1CCCC(CCO2)C1 (stereo partly shown)", "pIC50": "> 7.00"}

Incoming: For HT-29 cells, provide pIC50 of CC(=O)N[C@H]1CC(=O)N2CC3CC(Oc4ccc(C)c(c4)CNC(=O)[C@H](CCc4ccccc4)NC1=O)C3C2 (stereo partly shown) please.
Outgoing: 6.30 to 7.00

Incoming: API: value(readout=pIC50, system=HT-29 cells) for record Cc1ccc2cc1CNC(=O)[C@@H](CCc1ccccc1)NC(=O)[C@@H](NC(=O)OCc1ccccc1)CC(=O)N1CCC[C@H](CCO2)C1
Outgoing: 6.30 to 7.00

Incoming: Given the entry CCOC(=O)N[C@H]1CC(=O)N2CCCC(CCOc3ccc(C)c(c3)CNC(=O)C(c3cnn(C)c3)NC1=O)C2 (stereo partly shown) , what pIC50 was observed with HT-29 cells?
Outgoing: > 7.00

Incoming: State its pIC50 on HT-29 cells: Cc1ccc2cc1CNC(=O)[C@H](CCc1ccccc1)NC(=O)[C@@H](NC(=O)CCc1cccc(F)c1)CC(=O)N1CCCC(CCO2)C1 (stereo partly shown)
Outgoing: > 7.00

Incoming: Recall the recorded pIC50 for Cc1ccc2cc1CNC(=O)[C@H](CCc1ccccc1)NC(=O)[C@@H](NC(=O)C(C)(C)CO)CC(=O)N1CCCC(CCO2)C1 (stereo partly shown) with HT-29 cells and state it.
Outgoing: > 7.00
